Test system: Curvularia lunata
Assay: Antifungal activity against Curvularia lunata MTCC 581 after 48 hrs
Type: functional
Details: MTCC 581, 48 h
Hi there, I'd appreciate the recorded MIC for every entry that follows.
Give bare numbers, in µM.

Reference set (6 entries):
>>> measured("COc1cc(/C=C/c2noc(/C=C/c3ccc(O)c(OC)c3)c2/N=N/c2ccc(S(=O)(=O)Nc3nc(C)cc(C)n3)cc2)ccc1O")
80
>>> measured("COc1cc(/C=C/C(CC(/C=C/c2ccc(O)c(OC)c2)=N/c2ccc(S(=O)(=O)Nc3cc(C)on3)cc2)=N\\c2ccc(S(=O)(=O)Nc3cc(C)on3)cc2)ccc1O")
40
>>> measured("OC(Cn1cncn1)(Cn1cncn1)c1ccc(F)cc1F [FLUCONAZOLE]")
20
>>> measured("COc1ccc(NS(=O)(=O)c2ccc(/N=N/C(C(=O)/C=C/c3ccc(O)c(OC)c3)=C(O)\\C=C\\c3ccc(O)c(OC)c3)cc2)nn1")
20
>>> measured("COc1cc(/C=C/C(=O)C(/N=N/c2ccc(S(=O)(=O)Nc3cc(C)on3)cc2)=C(O)/C=C/c2ccc(O)c(OC)c2)ccc1O")
80
>>> measured("COc1cc(/C=C/C(O)=C/C(/C=C/c2ccc(O)c(OC)c2)=N/c2ccc(S(N)(=O)=O)cc2)ccc1O")
80

Here are 2 compounds. What values of MIC were reported for them?
1. COc1ccc(NS(=O)(=O)c2ccc(/N=N/c3c(/C=C/c4ccc(O)c(OC)c4)nn(-c4ccccc4)c3/C=C/c3ccc(O)c(OC)c3)cc2)nn1
2. COc1cc(/C=C/c2nn(-c3ccccc3)c(/C=C/c3ccc(O)c(OC)c3)c2/N=N/c2ccc(S(=O)(=O)Nc3cc(C)on3)cc2)ccc1O

[20, 80]

Please supply MIC for each of the following items, keeping them in order.
1. COc1cc(/C=C/C(=O)C(/N=N/c2ccc(S(=O)(=O)Nc3nc(C)cc(C)n3)cc2)=C(O)/C=C/c2ccc(O)c(OC)c2)ccc1O
2. COc1cc(/C=C/C(O)=C/C(/C=C/c2ccc(O)c(OC)c2)=N/c2ccc(S(=O)(=O)Nc3nc(C)cc(C)n3)cc2)ccc1O
3. COc1cc(/C=C/C(=O)C(/N=N/c2ccc(S(=O)(=O)Nc3ccccn3)cc2)=C(O)/C=C/c2ccc(O)c(OC)c2)ccc1O

[20, 20, 40]

Provide MIC for all items below, preserving their order.
1. COc1ccc(NS(=O)(=O)c2ccc(/N=C(\C=C\c3ccc(O)c(OC)c3)CC(/C=C/c3ccc(O)c(OC)c3)=N/c3ccc(S(=O)(=O)Nc4ccc(OC)nn4)cc3)cc2)nn1
2. COc1cc(/C=C/c2nn(-c3ccccc3)c(/C=C/c3ccc(O)c(OC)c3)c2/N=N/c2ccc(S(=O)(=O)Nc3ccccn3)cc2)ccc1O
3. COc1cc(/C=C/c2nn(-c3ccccc3)c(/C=C/c3ccc(O)c(OC)c3)c2/N=N/c2ccc(S(=O)(=O)Nc3nc(C)cc(C)n3)cc2)ccc1O
4. COc1cc(/C=C/C(CC(/C=C/c2ccc(O)c(OC)c2)=N/c2ccc(S(=O)(=O)Nc3nc(C)cc(C)n3)cc2)=N\c2ccc(S(=O)(=O)Nc3nc(C)cc(C)n3)cc2)ccc1O
5. COc1cc(/C=C/C(CC(/C=C/c2ccc(O)c(OC)c2)=N/c2ccc(S(=O)(=O)Nc3ccccn3)cc2)=N\c2ccc(S(=O)(=O)Nc3ccccn3)cc2)ccc1O
6. COc1ccc(NS(=O)(=O)c2ccc(/N=C(/C=C(O)/C=C/c3ccc(O)c(OC)c3)\C=C\c3ccc(O)c(OC)c3)cc2)nn1
7. COc1cc(/C=C/C(O)=C/C(/C=C/c2ccc(O)c(OC)c2)=N/c2ccc(S(=O)(=O)Nc3cc(C)on3)cc2)ccc1O

1. 20
2. 40
3. 20
4. 20
5. 80
6. 20
7. 80
